biological target: G12V-mutant human KRAS (amino acid residues 1-188) (Homo sapiens, UniProt P01116, G12V); construct: G12V-mutant human KRAS (amino acid residues 1-188) with FLAG tag was purified from E. coli; made in house; host or cells: E. coli; test: KRAS Binding Competition Assay (AlphaScreen; biotinylated KRpep-2d analogue), G12V; details: geometric mean, read-out: KRAS GMean IC50 (uM) MUTATION: G12V
REPORTED PROPERTY: IC50

Reference set, count: 2
1. CN1C[C@H](F)C[C@H]1COc1nc(N2C[C@H]3CC[C@@H](C2)N3)c2ccc(-c3cc(O)cc4ccccc34)cc2n1 [P-0072]    0.0001 to 10 µM
2. CN1CCN(CCCC(=O)N2[C@@H]3CC[C@H]2CN(c2nc(OCC45CCCN4CCC5)nc4c(F)c(-c5cc(O)cc6ccccc56)ccc24)C3)CC1 [P-0187]    0.0001 to 10 µM

Indicate the recorded IC50 value for this molecule: CC(C)(CN)COc1nc(N2C[C@H]3CC[C@@H](C2)N3)c2ccc(-c3cc(O)cc4ccccc34)c(F)c2n1 [P-0618]
10 to 100 µM
